Parameter percentage of EdU-negative: see the listing below.
# Tested on: hTERT-HMEC
# Test Method Notes: percentage of EdU-negative (G0-arrested) nuclei per well, 72 h; higher = more G0 arrest;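 further: secreted proteins added to cultured cells, EdU pulse at the end, nuclei found by Hoechst imaging, EdU status from nuclear versus surrounding ring intensity ratio, PBS as neutral control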
# Condition Description: protein concentration 0.0225 µM; reference: sequence is the full UniProt precursor, the tested protein was the secreted form or ectodomain
Quantity Name: percentage of EdU-negative (%)

- Biopolymer Sequence: "MKGFTATLFLWTLIFPSCSGGGGGKAWPTHVVCSDSGLEVLYQSCDPLQDFGFSVEKCSKQLKSNINIRFGIILREDIKELFLDLALMSQGSSVLNFSYPICEAALPKFSFCGRRKGEQIYYAGPVNNPEFTIPQGEYQVLLELYTEKRSTVACANATIMCS"
  Endpoint Value: 4.8
- Biopolymer Sequence: "MPRYVPLLLLLLLLRCSERGGGVNFGEKDAKVPGTWRDGVRVPGEGASWDSDRASPERRYGIVGLSQSISTKHPETSPKDSRIRENDVTADGRTTEDHITADPGTTEDSVTADPGTTEDNVTVDPGTTEGSVTADPATTKDYVSADPGTTKDSVTADPGTTENFVTADPGTTKDSITADPRTTEDSVTADPGTTKHSITVDPGTTEDSVTADPGTTKHSITADPGTTEDSVTADPGTTEDETTKHGDTHLL [E2RYF7]"
  Endpoint Value: 5.3
- Biopolymer Sequence: "MIPLLLAALLCVPAGALTCYGDSGQPVDWFVVYKLPALRGSGEAAQRGLQYKYLDESSGGWRDGRALINSPEGAVGRSLQPLYRSNTSQLAFLLYNDQPPQPSKAQDSSMRGHTKGVLLLDHDGGFWLVHSVPNFPPPASSAAYSWPHSACTYGQTLLCVSFPFAQFSKMGKQLTYTYPWVYNYQLEGIFAQEFPDLENVVKGHHVSQEPWNSSITLTSQAGAVFQSFAKFSKFGDDLYSGWLAAALGTNLQVQFWHKTVGILPSNCSDIWQVLNVNQIAFPGPAGPSFNSTEDHSKWCVSPKGPWTCVGDMNRNQGEEQRGGGTLCAQLPALWKAFQPLVKNYQPCNGMARKPSRAYKI"
  Endpoint Value: 5.36

* * *

# System: MCF7
# Test Method Notes: percentage of EdU-negative (G0-arrested) nuclei per well, 72 h; higher = more G0 arrest
# Condition Description: protein concentration 0.225 µM; reference: sequence is the full UniProt precursor, the tested protein was the secreted form or ectodomain
# percentage of EdU-negative listing for each entry below
Quantity Name: percentage of EdU-negative (%)

- Biopolymer Sequence: "MVSRMVSTMLSGLLFWLASGWTPAFAYSPRTPDRVSEADIQRLLHGVMEQLGIARPRVEYPAHQAMNLVGPQSIEGGAHEGLQHLGPFGNIPNIVAELTGDNIPKDFSEDQGYPDPPNPCPVGKTADDGCLENTPDTAEFSREFQLHQHLFDPEHDYPGLGKWNKKLLYEKMKGGERRKRRSVNPYLQGQRLDNVVAKKSVPHFSDEDKDPE"
  Endpoint Value: 25.7
- Biopolymer Sequence: "MAHRPPSPALASVLLALLLSGAARAAEIVGGHEAQPHSRPYMASLQMRGNPGSHFCGGTLIHPSFVLTAAHCLRDIPQRLVNVVLGAHNVRTQEPTQQHFSVAQVFLNNYDAENKLNDVLLIQLSSPANLSASVATVQLPQQDQPVPHGTQCLAMGWGRVGAHDPPAQVLQELNVTVVTFFCRPHNICTFVPRRKAGICFGDSGGPLICDGIIQGIDSFVIWGCATRLFPDFFTRVALYVDWIRSTLRRVEAKGRP"
  Endpoint Value: 29
